- Tested system: T1, mouse PRLR construct with an HA tag on HEK293/mPRLR cells (mouse, UniProt Q08501 20-608)
- T1 construct: whole, on cells; stably transfected into HEK293
- T1 sequence (looked up): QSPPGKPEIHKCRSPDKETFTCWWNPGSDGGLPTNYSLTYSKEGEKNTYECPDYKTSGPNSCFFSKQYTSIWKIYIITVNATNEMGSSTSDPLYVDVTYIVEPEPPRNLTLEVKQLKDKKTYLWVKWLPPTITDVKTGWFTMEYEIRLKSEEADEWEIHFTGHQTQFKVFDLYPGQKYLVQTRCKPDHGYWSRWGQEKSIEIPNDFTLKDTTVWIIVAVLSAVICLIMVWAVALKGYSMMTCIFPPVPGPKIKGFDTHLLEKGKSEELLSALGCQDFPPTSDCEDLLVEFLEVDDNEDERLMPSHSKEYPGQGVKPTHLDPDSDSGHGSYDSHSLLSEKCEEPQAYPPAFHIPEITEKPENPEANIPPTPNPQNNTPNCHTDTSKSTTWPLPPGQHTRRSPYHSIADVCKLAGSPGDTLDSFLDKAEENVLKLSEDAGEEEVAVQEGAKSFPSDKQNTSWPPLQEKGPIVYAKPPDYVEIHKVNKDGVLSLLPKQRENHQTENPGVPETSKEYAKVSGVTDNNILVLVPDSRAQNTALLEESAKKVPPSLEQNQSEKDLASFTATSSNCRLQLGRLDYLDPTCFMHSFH
- Assay method text: FACS on HEK293/mPRLR cells
Experimental endpoint: FACS Cell Binding (Fold Above Background) (fold)
Give the value, in units of fold, as a plain number.

Observe how each entry below is paired with its result.
- Binder: "H1H6959N2 (antibody, human IgG1, V domains shown, also called H2M6959N2) VH: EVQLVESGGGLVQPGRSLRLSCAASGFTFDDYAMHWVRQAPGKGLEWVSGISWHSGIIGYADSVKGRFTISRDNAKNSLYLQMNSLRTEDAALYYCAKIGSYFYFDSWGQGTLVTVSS VL: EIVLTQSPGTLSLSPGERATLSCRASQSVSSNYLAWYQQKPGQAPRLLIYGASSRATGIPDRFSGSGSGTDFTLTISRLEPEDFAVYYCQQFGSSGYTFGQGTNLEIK"
  Test value: 2
- Binder: "H1H6790P (antibody, human IgG1, V domains shown, human IgG1 Fc (H1H)) VH: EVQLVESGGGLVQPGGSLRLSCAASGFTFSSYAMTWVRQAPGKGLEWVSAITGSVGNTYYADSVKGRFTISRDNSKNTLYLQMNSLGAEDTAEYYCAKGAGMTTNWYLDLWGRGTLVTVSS VL: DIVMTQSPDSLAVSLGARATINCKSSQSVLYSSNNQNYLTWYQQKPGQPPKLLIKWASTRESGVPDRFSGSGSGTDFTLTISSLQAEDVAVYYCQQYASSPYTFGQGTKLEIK"
  Test value: 1

Query: Quote FACS Cell Binding (Fold Above Background) reported for H1H6795P (antibody, human IgG1, V domains shown, human IgG1 Fc (H1H)) VH: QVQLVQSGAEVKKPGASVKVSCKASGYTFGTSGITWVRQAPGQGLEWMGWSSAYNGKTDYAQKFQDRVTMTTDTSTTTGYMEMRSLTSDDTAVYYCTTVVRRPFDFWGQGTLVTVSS VL: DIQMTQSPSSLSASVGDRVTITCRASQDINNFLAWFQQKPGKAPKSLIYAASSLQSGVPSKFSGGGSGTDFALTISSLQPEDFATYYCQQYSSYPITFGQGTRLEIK please.
Response: 1

# credit: patent US20180185504A1
